Tested on: GluE1αA m2 variant (S653G, I655T)
Type: cell-based, Trichoplax adhaerens
Conditions: m2 variant; dose response of normalized current
Text: As noted, a model has been put forward that defines iGluR ligand specificity based on a set of key amino acids in the LBD of iGluRs[11]. […] To the best of our knowledge, whether these few positions are indeed solely responsible for ligand specificity, and moreover, can be altered to switch specificity for natural ligands, has not been experimentally tested. […]
ASSAY_METRIC: EC50 (mM)
Unit mM implied. Number only.

Item N[C@@H](CCC(=O)O)C(=O)O [glutamate] : provide EC50 1.81

---

System: GluE1αA m3 variant (S653G, I655T, F732Y)
Type: cell-based, Trichoplax adhaerens
Settings: m3 variant; dose response of normalized current
ASSAY_METRIC: EC50

Item N[C@@H](CCC(=O)O)C(=O)O [glutamate] : provide EC50 610 µM
